assay.target: CRBN-DDB1 protein complex (Homo sapiens)
Sequence (Q96SW2 whole entry): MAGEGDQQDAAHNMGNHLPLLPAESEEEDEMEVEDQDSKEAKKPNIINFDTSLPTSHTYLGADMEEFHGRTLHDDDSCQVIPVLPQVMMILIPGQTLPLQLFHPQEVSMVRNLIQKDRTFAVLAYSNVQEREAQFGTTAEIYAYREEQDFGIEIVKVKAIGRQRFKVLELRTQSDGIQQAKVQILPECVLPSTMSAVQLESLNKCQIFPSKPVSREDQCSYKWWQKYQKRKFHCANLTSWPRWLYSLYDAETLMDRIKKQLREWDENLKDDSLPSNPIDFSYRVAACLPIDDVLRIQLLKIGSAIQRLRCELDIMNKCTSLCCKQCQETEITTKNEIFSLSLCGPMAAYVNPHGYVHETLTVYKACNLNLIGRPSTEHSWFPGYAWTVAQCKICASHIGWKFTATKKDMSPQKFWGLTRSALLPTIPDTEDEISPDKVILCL
Sequence (Q16531 whole entry partner): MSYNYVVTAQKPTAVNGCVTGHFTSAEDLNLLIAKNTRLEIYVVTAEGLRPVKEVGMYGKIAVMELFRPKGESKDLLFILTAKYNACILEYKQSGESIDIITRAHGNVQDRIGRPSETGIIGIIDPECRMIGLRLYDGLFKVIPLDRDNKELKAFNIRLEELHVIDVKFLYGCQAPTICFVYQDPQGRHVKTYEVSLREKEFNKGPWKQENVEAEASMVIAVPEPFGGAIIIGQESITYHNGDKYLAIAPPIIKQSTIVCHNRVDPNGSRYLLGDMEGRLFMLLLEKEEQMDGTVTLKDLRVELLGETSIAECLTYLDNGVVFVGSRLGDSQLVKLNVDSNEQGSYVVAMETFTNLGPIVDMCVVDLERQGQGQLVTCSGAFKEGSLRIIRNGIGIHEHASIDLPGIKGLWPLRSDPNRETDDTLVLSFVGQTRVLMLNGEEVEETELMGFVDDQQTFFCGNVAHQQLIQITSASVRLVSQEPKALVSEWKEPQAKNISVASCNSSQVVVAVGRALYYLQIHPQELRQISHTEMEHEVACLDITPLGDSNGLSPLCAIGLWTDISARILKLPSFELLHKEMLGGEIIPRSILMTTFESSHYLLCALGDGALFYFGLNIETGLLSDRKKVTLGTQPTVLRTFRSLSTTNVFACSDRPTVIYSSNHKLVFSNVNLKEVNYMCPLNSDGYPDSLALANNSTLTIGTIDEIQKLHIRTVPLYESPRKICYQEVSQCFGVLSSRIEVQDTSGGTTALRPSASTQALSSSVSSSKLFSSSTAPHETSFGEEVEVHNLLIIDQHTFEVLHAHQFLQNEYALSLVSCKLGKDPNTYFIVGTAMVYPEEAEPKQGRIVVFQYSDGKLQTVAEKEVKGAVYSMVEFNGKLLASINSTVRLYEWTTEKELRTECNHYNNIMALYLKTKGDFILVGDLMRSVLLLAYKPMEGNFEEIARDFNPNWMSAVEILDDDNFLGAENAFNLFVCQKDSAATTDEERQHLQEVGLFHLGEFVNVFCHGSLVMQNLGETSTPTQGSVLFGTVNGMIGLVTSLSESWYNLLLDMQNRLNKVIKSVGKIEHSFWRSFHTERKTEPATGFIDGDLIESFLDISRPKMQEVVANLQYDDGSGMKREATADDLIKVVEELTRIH
protocol.notes: Fluorescence polarization (FP) assay, displacement of Cy5-labelled thalidomide; note: 25 nM CRBN-DDB1
assay.setup: read-out: CRBN binding Ki
The following compounds are shown together with reported Ki values.
quantity.name: Ki

INSERT INTO assay_data (compound, quantity_name, test_value) VALUES
  ('Cc1nc2ccc(NS(=O)(=O)c3ccccc3OC(F)(F)F)cc2cc1C1CCC(=O)NC1=O (stereo not drawn)', 'Ki', '< 1 µM'),
  ('O=C1CCC(c2cnc3cccc([N+](=O)[O-])c3c2)C(=O)N1 (stereo not drawn)', 'Ki', '1 to 5 µM'),
  ('Cc1nc2c(N)cccc2cc1C1CCC(=O)NC1=O (stereo not drawn)', 'Ki', '< 1 µM'),
  ('Cc1nc2c([N+](=O)[O-])cccc2cc1C1CCC(=O)NC1=O (stereo not drawn)', 'Ki', '1 to 5 µM'),
  ('Nc1cccc2ncc(C3CCC(=O)NC3=O)cc12 (stereo not drawn)', 'Ki', '< 1 µM'),
  ('Cc1nc2ccccc2cc1C1CCC(=O)NC1=O (stereo not drawn)', 'Ki', '1 to 5 µM'),
  ('Cc1nc2cccc([N+](=O)[O-])c2cc1C1CCC(=O)NC1=O (stereo not drawn)', 'Ki', '1 to 5 µM'),
  ('Cc1nc2c(NS(=O)(=O)c3ccccc3OC(F)(F)F)cccc2cc1C1CCC(=O)NC1=O (stereo not drawn)', 'Ki', '1 to 5 µM'),
  ('Cc1nc2cccc(F)c2cc1C1CCC(=O)NC1=O (stereo not drawn)', 'Ki', '1 to 5 µM'),
  ('Cc1nc2cc(C(=O)N[C@@H](C)C3CCCCC3)ccc2cc1C1CCC(=O)NC1=O (stereo partly drawn)', 'Ki', '1 to 5 µM'),
  ('Cc1nc2cccc(N)c2cc1C1CCC(=O)NC1=O (stereo not drawn)', 'Ki', '1 to 5 µM'),
  ('Cc1nc2cc(CNC(=O)C(F)(F)c3ccc(Cl)cc3)ccc2cc1C1CCC(=O)NC1=O (stereo not drawn)', 'Ki', '< 1 µM'),
  ('Cc1nc2c(cnn2C)cc1C1CCC(=O)NC1=O (stereo not drawn)', 'Ki', '1 to 5 µM'),
  ('Cc1nc2cc([N+](=O)[O-])ccc2cc1C1CCC(=O)NC1=O (stereo not drawn)', 'Ki', '5 to 10 µM'),
  ('Cc1nc2ccc([N+](=O)[O-])cc2cc1C1CCC(=O)NC1=O (stereo not drawn)', 'Ki', '5 to 10 µM'),
  ('Cc1nc2ccc(N)cc2cc1C1CCC(=O)NC1=O (stereo not drawn)', 'Ki', '< 1 µM'),
  ('Cc1ccc(NC(=O)NCc2ccc3cc(C4CCC(=O)NC4=O)c(C)nc3c2)cc1Cl (stereo not drawn)', 'Ki', '< 1 µM'),
  ('Cc1nc2c(Cl)cccc2cc1C1CCC(=O)NC1=O (stereo not drawn)', 'Ki', '1 to 5 µM'),
  ('Cc1nc2cc(NS(=O)(=O)c3ccccc3OC(F)(F)F)ccc2cc1C1CCC(=O)NC1=O (stereo not drawn)', 'Ki', '< 1 µM'),
  ('Cc1nc2cccc(NS(=O)(=O)c3ccccc3OC(F)(F)F)c2cc1C1CCC(=O)NC1=O (stereo not drawn)', 'Ki', '< 1 µM'),
  ('Cc1nc2cc(N)ccc2cc1C1CCC(=O)NC1=O (stereo not drawn)', 'Ki', '< 1 µM');
